- experimental-system: T1, monkey CD22 protein (ACROBiosystems, catalog number SI2-R52Ha) (monkey, UniProt F6W485 20-688)
- T1 construct: commercial protein; also called monkey CD22-ECD; monkey CD22-ECD-His
- T1 sequence: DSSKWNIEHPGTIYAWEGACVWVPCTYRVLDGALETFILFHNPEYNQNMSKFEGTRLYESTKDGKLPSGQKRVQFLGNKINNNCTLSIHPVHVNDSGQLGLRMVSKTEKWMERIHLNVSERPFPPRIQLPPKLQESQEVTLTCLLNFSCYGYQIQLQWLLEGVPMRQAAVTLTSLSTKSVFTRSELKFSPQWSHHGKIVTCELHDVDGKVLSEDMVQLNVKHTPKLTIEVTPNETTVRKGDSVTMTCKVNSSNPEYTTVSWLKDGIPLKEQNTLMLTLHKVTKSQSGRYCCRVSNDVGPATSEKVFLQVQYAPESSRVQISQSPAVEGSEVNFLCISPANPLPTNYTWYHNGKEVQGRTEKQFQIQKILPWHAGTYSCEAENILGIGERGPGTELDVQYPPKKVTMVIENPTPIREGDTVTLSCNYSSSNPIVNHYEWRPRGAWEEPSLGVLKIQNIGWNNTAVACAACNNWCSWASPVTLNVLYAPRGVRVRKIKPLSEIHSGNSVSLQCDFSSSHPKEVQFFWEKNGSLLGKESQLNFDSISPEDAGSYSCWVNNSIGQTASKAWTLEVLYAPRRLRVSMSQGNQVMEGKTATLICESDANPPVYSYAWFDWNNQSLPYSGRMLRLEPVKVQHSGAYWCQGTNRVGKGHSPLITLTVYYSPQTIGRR
- method-notes: ELISA, coated monkey CD22 protein, antibody 0.1 nM
// reported OD450 per item
Your answer is read as OD450, so omit the unit and give the number.

For orientation, consider the following solved cases.
# binder, numeric-value
measured = [
    ("F2.205.9 (antibody, human IgG1, lambda, V domains shown, human-murine chimeric IgG1 lambda; VL name legible) VH: QVTLKESGPGILQPSQTLSLTCSFSGFSLSTSGMGVGWIRQPSGKGLEWLAHIWWDDDEYYNPALKSRLTISKDTSKNQVFLKIANVDTADTATYYCARISIPYGYYDWFFDVWGTGTTVTVSA VL: QAVVTQESALTTSPGETVTLTCRSSTGAVTTRNYANWVQEKPDHLFTGLIGGTNNRAPGVPARFSGSLIGDKAALTITGAQTEDEAIYFCALWYSNHFIFGSGTKVTVLG", 2.21),
    ("F1.120.15 (antibody, human IgG1, kappa, V domains shown, human-murine chimeric IgG1 kappa) VH: QVQLQQSGPELVKPGASVKISCKASGNAFSNSWMNWVKQRPGKGLEWIGRVYSEDGDTQYNGKFRDKATLTADRSTSTAYMQLSSLTSEDSAVYFCARWLIYYGTYGAMDYWGQGTSVTVSS VL: DIQMTQTTSSLSASLGDRVTISCRASQDINNYLNWYHQKPDGTVKLLIYFTSRPYSGVPSRFSGSGSGTDYSLTISNLEQEDIATYFCQQGNTLPWTFGGGTKLEIKR", 1.56),
]

Record request: OD450 value, item F1.280.1 (antibody, human IgG1, kappa, V domains shown, human-murine chimeric IgG1 kappa) VH: QIQLVQSGPELKKPGETVKISCKASGYTFTTYGMSWVKQTPGKGLTWMGWINTDSGVPTYADDFKRRFAFSLEASATTAYLQINNLKNEDTATYFCARGGPDYWGQGTTLTVSS VL: DILLTQSPATLSVTPGETVSLSCRASQSIYKNLHWYHQKSHRSPRLLIKYASDSISGIPSRFTGSGSGTNFTLSINSVKPEDEGIYYCLQGYIVPLTFGAGTKLELKR
0.06

Each recorded value in this set is attributed to patent US20240084003A1.
